Listed next: entries and their corresponding pre-steady-state target cleavage rate.
- Test system: MIWI (PIWIL1) piRISC loaded with piRNA #2 (30 nt);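 also: 1 nM active piRISC with 0.1 nM target library at 33 °C single turnover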
- assayComment: pre-steady-state target cleavage rate (min^-1); MIWI and MILI are mouse PIWI proteins and EfPiwi is from a freshwater sponge; tags in brackets are library labels; higher = faster piRNA-guided slicing of the target;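 also: 1 nM active piRISC with 0.1 nM target library at 33 °C single turnover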
- details: guide: piRNA #2 5'p-UUAGGUAACCCAGUAGAUCCAGAGGAAUUC; auxiliary factor: 500 nM mouse GTSF1
The full ranking holds about 5,500 sequences; the median of “pre-steady-state target cleavage rate” is about 0.1, and the highest 2% start at about 0.64. The entries come from a sample that favours the highest values as a whole.
Simply state the number, no unit and no words.

Reference set (5 entries):
CUAUUCCUCUCGAUCUACUGGGUUACCUAA : 0.734
CUUUUCCUCUGCAUCUACUGCGUUACCUAA : 0.49
CUUAUCCUCUGGAUCAUCUGGGUUACCUAA : 0.246
CAAUUCCUCUUGAUCUACUGGGUUACCUAA : 0.866
CUUAUCCUCUGGAACUACUGGGUUACCUUA : 0.254

Give the reported pre-steady-state target cleavage rate for this sequence. `CGAUUCCUCUGGAUCUACUGGGUUACCUAA`
0.329

Give the reported pre-steady-state target cleavage rate for this sequence. `CUUAUCCUCUCGAUCUACUGGGUUACGUAA`
0.728

Give the reported pre-steady-state target cleavage rate for this sequence. `CUAUUCCUCUGGAUCUACUGGUGUUACCUAA`
0.00505

Give the reported pre-steady-state target cleavage rate for this sequence. `CAAUUCCUCUGGAUCUACUGGGUUAACUAA`
0.386

Give the reported pre-steady-state target cleavage rate for this sequence. `GAAUUCCUCUGGAUCUACUGUGGUUACCUAA`
0.00388

Give the reported pre-steady-state target cleavage rate for this sequence. `GAAUUCCUCUGGAUCUACUGGGUUACCAUA`
0.364

Give the reported pre-steady-state target cleavage rate for this sequence. `CUUUUCCUCUGGAUCUACUGUGUUACCUAA`
0.751

Give the reported pre-steady-state target cleavage rate for this sequence. `CAAUUCCUCUGGAUCUACUGGGUUAGCCUAA`
0.651

Give the reported pre-steady-state target cleavage rate for this sequence. `CUUAAGGUGAGGAUCUACUGGGUUACCUAA`
0.0307

Give the reported pre-steady-state target cleavage rate for this sequence. `CUUUUCCUCUGGAUCUACUGGGUUACCAUA`
0.437

Give the reported pre-steady-state target cleavage rate for this sequence. `CUAUUCCUCUGGAUCUACUGGUUACCUAA`
0.104

Give the reported pre-steady-state target cleavage rate for this sequence. `GAAUUCCUCUGGAUCUACUGAGGUUACCUAA`
0.00556

Give the reported pre-steady-state target cleavage rate for this sequence. CUUUUCCUCUGGAUCUACUGGGUUACCUAA [g2:g27:cont:t1A]
0.408

Give the reported pre-steady-state target cleavage rate for this sequence. `GAAUUCCUCUGGAUCUACUGUGUUACCUAA`
0.673

Give the reported pre-steady-state target cleavage rate for this sequence. `CUUAAGGAGUGGAUCUACUGGGUUACCAUA`
0.0428

Give the reported pre-steady-state target cleavage rate for this sequence. `CUAUUCCUCUGGAUCUACUGUGUUACCUAA`
0.696

Give the reported pre-steady-state target cleavage rate for this sequence. `GAAUUCCUCUGGAUCUACUGGGUUACAUAA`
0.64

Give the reported pre-steady-state target cleavage rate for this sequence. `CAAUUCCUCUGGAUCUACUGGUGUUACCUAA`
0.0066
